Target: Mu-type opioid receptor (Homo sapiens)
Sequence (P35372 whole entry): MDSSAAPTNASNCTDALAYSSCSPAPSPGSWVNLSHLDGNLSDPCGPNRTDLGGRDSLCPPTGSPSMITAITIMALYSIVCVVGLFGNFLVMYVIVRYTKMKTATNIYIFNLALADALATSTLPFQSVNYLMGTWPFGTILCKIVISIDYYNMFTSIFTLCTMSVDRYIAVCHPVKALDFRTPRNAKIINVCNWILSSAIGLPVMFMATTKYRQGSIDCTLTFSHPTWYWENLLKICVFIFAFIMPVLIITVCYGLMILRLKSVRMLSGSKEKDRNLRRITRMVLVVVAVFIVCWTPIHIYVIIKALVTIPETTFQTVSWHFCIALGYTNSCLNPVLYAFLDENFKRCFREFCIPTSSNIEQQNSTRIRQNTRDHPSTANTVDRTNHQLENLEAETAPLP
Experiment: Antagonistic activity against opioid receptor mu1
measurement.label: log10 Ki (log10 of the value in nM)
Field: value | Transform: log10 | Quantity: Ki | Unit: nM

# example entries with known answers
OC1(c2cccc(C(F)(F)F)c2)CCN(C2CCC3CCCCC3C2)CC1 (centres undefined) | 1.32
OC1(c2ccc(Cl)c(C(F)(F)F)c2)CCN(CCC(c2ccccc2)c2ccccc2)CC1 | 0.60
CCCC1CCC(N2CCC(O)(c3cccc(C(F)(F)F)c3)CC2)CC1 (centres undefined) | 1.66
OC1(c2ccc(Cl)c(C(F)(F)F)c2)CCN(C2Cc3ccccc3C2)CC1 | 1.28
OC1(c2cccc(C(F)(F)F)c2)CCN(CCC(c2ccccc2)c2ccccc2)CC1 | 0.00
OC1(c2ccc(Cl)c(C(F)(F)F)c2)CCN(CC2CCCCCCC2)CC1 | 2.09
OC1(c2ccc(Cl)cc2)CCN(CC2CCCCCCC2)CC1 | 2.80
CC(C)C1CCC(N2CCC(O)(c3ccc(Cl)c(C(F)(F)F)c3)CC2)CC1 (centres undefined) | 0.90

In the following, a different compound is considered.
log10 Ki reported for this compound "OC1(c2cccc(C(F)(F)F)c2)CCN(CC2CCCCCCC2)CC1" : 2.05

====

Molecular target: UniProt P41145
Sequence (P41145 whole entry): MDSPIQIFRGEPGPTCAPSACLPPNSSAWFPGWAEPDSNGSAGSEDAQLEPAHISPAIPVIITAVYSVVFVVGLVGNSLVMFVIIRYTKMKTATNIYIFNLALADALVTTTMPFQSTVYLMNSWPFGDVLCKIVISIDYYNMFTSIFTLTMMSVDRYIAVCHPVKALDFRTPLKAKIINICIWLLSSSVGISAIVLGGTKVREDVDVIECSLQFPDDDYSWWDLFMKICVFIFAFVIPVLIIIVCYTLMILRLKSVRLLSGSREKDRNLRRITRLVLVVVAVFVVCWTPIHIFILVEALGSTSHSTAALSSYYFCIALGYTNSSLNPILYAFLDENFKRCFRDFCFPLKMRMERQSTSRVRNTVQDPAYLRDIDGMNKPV
Assay: Antagonistic activity against opioid receptor kappa 1
Type: functional
measurement.label: Ki

# example entries with known answers
CCCC1CCC(N2CCC(O)(c3cccc(C(F)(F)F)c3)CC2)CC1 (centres undefined) | 6 µM
CC(C)C1CCC(N2CCC(O)(c3cccc(C(F)(F)F)c3)CC2)CC1 (centres undefined) | 4.15 µM
OC1(c2ccc(Cl)c(C(F)(F)F)c2)CCN(CC2CCCCCCC2)CC1 | 1.65 µM

Let me check: "OC1(c2cccc(C(F)(F)F)c2)CCN(CC2CCCCCCC2)CC1" , system UniProt P41145, measured Ki is 4.24 µM

====

Recorded Ki, one value per entry.
Target: Delta-type opioid receptor (Homo sapiens)
Sequence (P41143 whole entry): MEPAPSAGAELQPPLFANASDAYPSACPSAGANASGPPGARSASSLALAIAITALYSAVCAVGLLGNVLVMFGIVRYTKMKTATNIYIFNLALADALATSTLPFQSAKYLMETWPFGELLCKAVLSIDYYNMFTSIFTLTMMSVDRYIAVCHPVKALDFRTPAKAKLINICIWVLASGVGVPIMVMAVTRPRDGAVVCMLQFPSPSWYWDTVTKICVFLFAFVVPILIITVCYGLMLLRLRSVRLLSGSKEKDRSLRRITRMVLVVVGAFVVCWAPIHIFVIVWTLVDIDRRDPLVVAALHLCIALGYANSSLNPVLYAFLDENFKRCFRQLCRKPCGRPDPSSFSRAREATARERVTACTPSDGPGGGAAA
Assay: Antagonistic activity against Opioid receptor delta 1
Type: functional
Give the quantity in µM, number only.

# example entries with known answers
OC1(c2ccc(Cl)c(C(F)(F)F)c2)CCN(CC2CCCCCCC2)CC1 | 8.78
OC1(c2ccc(Cl)c(C(F)(F)F)c2)CCN(C2Cc3ccccc3C2)CC1 | 10
OC1(c2cccc(C(F)(F)F)c2)CCN(C2CCC3CCCCC3C2)CC1 (stereo not given) | 10
OC1(c2cccc(C(F)(F)F)c2)CCN(CCC(c2ccccc2)c2ccccc2)CC1 | 9.39

In the following, a different compound is considered.
Ki reported for this compound CC(C)C1CCC(N2CCC(O)(c3ccc(Cl)c(C(F)(F)F)c3)CC2)CC1 (stereo not given) : 10

====

Molecular target: Nociceptin receptor (Homo sapiens, UniProt P41146)
Sequence (P41146 whole entry): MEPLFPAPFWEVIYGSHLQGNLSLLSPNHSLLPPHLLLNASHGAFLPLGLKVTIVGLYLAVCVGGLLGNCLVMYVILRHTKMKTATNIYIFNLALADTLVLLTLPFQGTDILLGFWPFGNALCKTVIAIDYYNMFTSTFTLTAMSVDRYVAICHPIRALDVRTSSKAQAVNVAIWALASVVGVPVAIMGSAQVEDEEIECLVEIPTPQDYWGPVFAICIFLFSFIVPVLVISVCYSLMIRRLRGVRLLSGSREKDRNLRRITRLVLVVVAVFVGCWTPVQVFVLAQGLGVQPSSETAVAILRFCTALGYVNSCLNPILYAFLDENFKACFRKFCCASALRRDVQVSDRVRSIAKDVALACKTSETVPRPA
Experiment: Antagonistic activity against orphan FQ receptor
Assay type: functional
measurement.label: pKi
Kindly note that pKi refers to -log10 of the concentration in mol/L and answer with the value alone.

# example entries with known answers
OC1(c2cccc(C(F)(F)F)c2)CCN(CC2CCCCCCC2)CC1 | 6.99
OC1(c2cccc(C(F)(F)F)c2)CCN(C2CCC3CCCCC3C2)CC1 (centres undefined) | 7.92
OC1(c2ccc(Cl)c(C(F)(F)F)c2)CCN(CC2CCCCCCC2)CC1 | 7.33
OC1(c2ccc(Cl)cc2)CCN(CC2CCCCCCC2)CC1 | 6.30
OC1(c2ccc(Cl)c(C(F)(F)F)c2)CCN(C2Cc3ccccc3C2)CC1 | 7.09
CCCC1CCC(N2CCC(O)(c3cccc(C(F)(F)F)c3)CC2)CC1 (centres undefined) | 6.87
OC1(c2cccc(C(F)(F)F)c2)CCN(CCC(c2ccccc2)c2ccccc2)CC1 | 6.94
OC1(c2ccc(Cl)c(C(F)(F)F)c2)CCN(CCC(c2ccccc2)c2ccccc2)CC1 | 6.65

Let me check: CC(C)C1CCC(N2CCC(O)(c3ccc(Cl)c(C(F)(F)F)c3)CC2)CC1 (centres undefined) , system Nociceptin receptor (Homo sapiens, UniProt P41146), measured pKi is 7.48
